# measurement.notes: Human plasma stability
half-life values for the compounds below.
Only the number, expressed in h, is required.

CC[C@@]1(O)C(=O)OCc2c1cc1n(c2=O)Cc2c-1nc1cc(F)c(C)c3c1c2[C@@H](NC(=O)COCNC(=O)[C@@H](N)Cc1ccccc1)CC3 [P7] :: 24.4

Shift focus to the following entry.
Ask: Return value of half-life for input CC[C@@]1(O)C(=O)OCc2c1cc1n(c2=O)Cc2c-1nc1cc(F)c(C)c3c1c2[C@@H](NC(=O)COCNC(=O)[C@@H](N)CCC(=O)O)CC3 [P4] , no commentary.
Reply: 107

###

# Test system: JIMT-1
# measurement.notes: in vitro cell killing activity, JIMT-1 cells (CellTiter Glo viability)
# Type: cell-based
# experimental.setup: JIMT-1 cells
Threshold-based label: JIMT-1 % Kill under 90% gives true, JIMT-1 % Kill not under 90% gives false.

Some solved cases for reference:
CC[C@@]1(O)C(=O)OCc2c1cc1n(c2=O)Cc2c-1nc1cc(F)c(C)c3c1c2[C@@H](NC(=O)COCNC(=O)[C@@H](N)Cc1ccccc1)CC3 :: false
CC[C@@]1(O)C(=O)OCc2c1cc1n(c2=O)Cc2c-1nc1cc(F)c(C)c3c1c2[C@@H](NC(=O)CO)CC3 [Dxd, reference compound] :: false
CC[C@@]1(O)C(=O)OCc2c1cc1n(c2=O)Cc2c-1nc1cc(F)c(C)c3c1c2[C@@H](NC(=O)COCNC(=O)[C@@H](N)CCC(N)=O)CC3 :: true

For the next question, use this compound.
Ask: State whether 90% exceeds JIMT-1 % Kill recorded for CC[C@@]1(O)C(=O)OCc2c1cc1n(c2=O)Cc2c-1nc1cc(F)c(C)c3c1c2[C@@H](NC(=O)COCNC(=O)[C@@H](N)CO)CC3 [P2] .
Reply: false

###

# measurement.notes: in vitro
# experimental.setup: human, plasma
half-life values for the compounds below.
Only the number, expressed in min, is required.

As a guide, the following entries are already answered.
CC[C@@]1(O)C(=O)OCc2c1cc1n(c2=O)Cc2c-1nc1cc(F)c(C)c3c1c2[C@@H](NC(=O)COCNC(=O)[C@@H](N)CCC(N)=O)CC3 :: 1450
CC[C@@]1(O)C(=O)OCc2c1cc1n(c2=O)Cc2c-1nc1cc(F)c(C)c3c1c2[C@@H](NC(=O)COCNC(=O)CNC(=O)CN)CC3 :: 8640
CC[C@@]1(O)C(=O)OCc2c1cc1n(c2=O)Cc2c-1nc1cc(F)c(C)c3c1c2[C@@H](NC(=O)COCNC(=O)[C@@H](N)CCCCN=[N+]=[N-])CC3 :: 1690
CC[C@@]1(O)C(=O)OCc2c1cc1n(c2=O)Cc2c-1nc1cc(F)c(C)c3c1c2[C@@H](NC(=O)COCNC(=O)CN)CC3 [P1] :: 2980
CC[C@@]1(O)C(=O)OCc2c1cc1n(c2=O)Cc2c-1nc1cc(F)c(C)c3c1c2[C@@H](NC(=O)COCNC(=O)[C@@H](N)CCCCN)CC3 :: 2960

Shift focus to the following entry.
Ask: Return value of half-life for input CC[C@@]1(O)C(=O)OCc2c1cc1n(c2=O)Cc2c-1nc1cc(F)c(C)c3c1c2[C@@H](NC(=O)COCNC(=O)[C@@H](N)CO)CC3 [P2] , no commentary.
Reply: 3920
